Would you mind telling me the reported residual activity of each entry?
# Target entity: TEK (human)
# Protocol description: radiometric filter-binding kinase assay, Kinase HotSpot
# Assay setup: compound 0.5 µM; ATP 10 µM
Numbers only, in %.

Study these solved cases before continuing.
*Q* Requested field: residual activity. Item: "COc1cc2ncnc(N3CCN(C(=O)Nc4ccc(Oc5ccccc5)cc4)CC3)c2cc1OC"
*A* 92.6

*Q* Also, "COc1ccc(CNC(=O)Nc2ncc([N+](=O)[O-])s2)cc1" please.
*A* 94

*Q* Also, "O=C(Nc1cccc(Nc2cc(Nc3cccc(C(F)(F)F)c3)ncn2)c1)C1CC1" please.
*A* 101

*Q* Also, "COc1ccc(OC)c2c(=S)c3ccccc3[nH]c12" please.
*A* 100

*Q* Also, "CC(=O)O/N=C1\C(=C2\C(=O)Nc3cc(Br)ccc32)Nc2ccccc21" please.
*A* 106

State recorded residual activity for all listed molecules.
1. Cn1cnc2cc3c(Nc4cccc(Br)c4)ncnc3cc21
2. Nc1nccc(-c2c(-c3ccc(F)cc3)ncn2C2CCNCC2)n1
3. O=C1NC(=O)/C(=C\c2ccc3nccnc3c2)S1
4. O=C1NC(=O)C(c2cn(CCCO)c3ncccc23)=C1c1cnccn1
5. CCn1cnc2c(Nc3cccc(Cl)c3)nc(N[C@@H]3CCCC[C@@H]3N)nc21
6. O=C1Nc2ccccc2/C1=C1/Nc2ccccc2/C1=N\OCCC(O)CO (stereo not drawn)
7. Nc1nnc2[nH]c3ccccc3nc1-2

*A*
1. 98.9
2. 101
3. 89.5
4. 103
5. 99.9
6. 101
7. 97

State recorded residual activity for all listed molecules.
1. COc1cc2ncc(-c3ccccc3)nc2cc1OC
2. Cc1nc2cc3nc(-c4cccs4)cnc3cc2n1C
3. CN(C)C[C@H]1CCn2c(c(C3=C(c4cn(C)c5ccccc45)C(=O)NC3=O)c3ccccc32)C1
4. CCN(CC)CCCCN1c2ccccc2Oc2ccc(Cl)cc21
5. O=C(CCCc1ccc(-c2ccccc2F)cc1)Nc1ccc(O)cc1
6. CC(C)[C@H](CO)Nc1nc(Nc2cc(N)cc(Cl)c2)c2ncn(C(C)C)c2n1
7. O=C(O)/C=C/c1cc(Br)c(Br)c(Br)c1Br

*A*
1. 85.7
2. 96.6
3. 98.4
4. 103
5. 101
6. 92.5
7. 94.4

State recorded residual activity for all listed molecules.
1. Cn1nc2c3c(cccc31)C(=O)c1ccccc1-2
2. Oc1ccc(Nc2nc(-c3ccc(Cl)cc3)cs2)cc1
3. O=C1Nc2ccccc2/C1=C1\Nc2ccccc2\C1=N/O

*A*
98.2
104
98.7

*Q* Requested field: residual activity. Item: "O=C1NC(=O)C(c2c[nH]c3ccccc23)=C1c1c[nH]c2ccccc12"
*A* 101

---

# Target entity: AURKA (human) (UniProt O14965)
# Sequence (O14965 whole entry, looked up): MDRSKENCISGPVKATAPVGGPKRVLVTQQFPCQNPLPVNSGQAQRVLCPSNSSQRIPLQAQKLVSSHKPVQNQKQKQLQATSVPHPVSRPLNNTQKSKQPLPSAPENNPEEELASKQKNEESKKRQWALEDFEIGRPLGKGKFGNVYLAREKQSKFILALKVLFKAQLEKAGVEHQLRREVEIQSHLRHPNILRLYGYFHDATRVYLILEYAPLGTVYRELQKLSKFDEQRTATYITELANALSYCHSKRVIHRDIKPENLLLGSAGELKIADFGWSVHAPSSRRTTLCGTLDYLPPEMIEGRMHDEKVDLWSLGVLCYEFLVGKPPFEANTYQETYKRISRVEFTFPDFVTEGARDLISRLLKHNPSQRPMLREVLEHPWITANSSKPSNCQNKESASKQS
# Protocol description: radiometric filter-binding kinase assay, Kinase HotSpot
# Assay setup: compound 0.5 µM; ATP 10 µM
Property name: residual activity (%)
Numbers only, in %.

Study these solved cases before continuing.
*Q* Requested field: residual activity. Item: "CC(C)[C@H](CO)Nc1nc(Nc2cc(N)cc(Cl)c2)c2ncn(C(C)C)c2n1"
*A* 80.5

*Q* Also, "Cc1nc2cc3nc(-c4cccs4)cnc3cc2n1C" please.
*A* 84.8

*Q* Also, "CC(C)c1nn(-c2c(Cl)cccc2Cl)c2nc(Cc3ccc(OCCO)cc3)nc(O)c12" please.
*A* 107

*Q* Also, "COc1cc2ncnc(N3CCN(C(=O)Nc4ccc(Oc5ccccc5)cc4)CC3)c2cc1OC" please.
*A* 79.6

*Q* Also, "O=C(CCCc1ccc(-c2ccccc2F)cc1)Nc1ccc(O)cc1" please.
*A* 104

State recorded residual activity for all listed molecules.
1. CCn1cnc2c(Nc3cccc(Cl)c3)nc(N[C@@H]3CCCC[C@@H]3N)nc21
2. O=C1Nc2ccccc2/C1=C1\Nc2ccccc2\C1=N/O
3. O=C(O)/C=C/c1cc(Br)c(Br)c(Br)c1Br

*A*
1: 105; 2: 21.3; 3: 77.2
